Assay: Minimum inhibitory concentration against Streptococcus pneumoniae 5737 MLSB
Format: functional
property-name: MIC (µg/mL)
Answer in µg/mL, number only, no unit symbol.

compound-string	MIC / µg/mL
CC[C@H]1OC(=O)[C@H](C)C(=O)[C@H](C)[C@@H](O[C@@H]2O[C@H](C)C[C@H](N(C)C)[C@H]2O)[C@](C)(OCCNCCCCc2ccccc2)C[C@@H](C)C(=O)[C@H](C)[C@H]2NC(=O)O[C@@]21C	16

API: the following record is the query input.
Problem: Report MIC for CC[C@H]1OC(=O)[C@H](C)C(=O)[C@H](C)[C@@H](O[C@@H]2O[C@H](C)C[C@H](N(C)C)[C@H]2O)[C@](C)(OC/C=C/c2cnc3ncccc3c2)C[C@@H](C)C(=O)[C@H](C)[C@H]2NC(=O)O[C@@]21C please.
Result: 0.5

---

Test system: Staphylococcus aureus
Assay: Minimum inhibitory concentration against Staphylococcus aureus ATCC 6538PEry-S
Type: functional
Settings: ATCC 6538P
property-name: MIC (µg/mL)
Answer in µg/mL, number only, no unit symbol.

molecule	measured-on	scale-unit	reading
CC[C@H]1OC(=O)[C@H](C)C(=O)[C@H](C)[C@@H](O[C@@H]2O[C@H](C)C[C@H](N(C)C)[C@H]2O)[C@](C)(OCCNCc2ccccc2)C[C@@H](C)C(=O)[C@H](C)[C@H]2NC(=O)O[C@@]21C	Staphylococcus aureus	µg/mL	0.2
C=CCO[C@]1(C)C[C@@H](C)C(=O)[C@H](C)[C@H]2N(C)C(=O)O[C@]2(C)[C@@H](CC)OC(=O)[C@H](C)C(=O)[C@H](C)[C@H]1O[C@@H]1O[C@H](C)C[C@H](N(C)C)[C@H]1O	Staphylococcus aureus	µg/mL	6.2
CC[C@H]1OC(=O)[C@H](C)C(=O)[C@H](C)[C@@H](O[C@@H]2O[C@H](C)C[C@H](N(C)C)[C@H]2O)[C@](C)(OC/C=C/c2ccccc2)C[C@@H](C)C(=O)[C@H](C)[C@@H](O)[C@]1(C)O	Staphylococcus aureus	µg/mL	1.56
CC[C@H]1OC(=O)[C@H](C)C(=O)[C@H](C)[C@@H](O[C@@H]2O[C@H](C)C[C@H](N(C)C)[C@H]2O)[C@](C)(OC/C=C/c2ccc3[nH]cnc3c2)C[C@@H](C)C(=O)[C@H](C)[C@H]2NC(=O)O[C@@]21C	Staphylococcus aureus	µg/mL	0.1
CC[C@H]1OC(=O)[C@H](C)C(=O)[C@H](C)[C@@H](O[C@@H]2O[C@H](C)C[C@H](N(C)C)[C@H]2O)[C@](C)(OC/C=C/c2cnc3cccnc3c2)C[C@@H](C)C(=O)[C@H](C)[C@H]2NC(=O)O[C@@]21C	Staphylococcus aureus	µg/mL	0.05
CC[C@H]1OC(=O)[C@H](C)[C@@H](O[C@H]2C[C@@](C)(OC)[C@@H](O)[C@H](C)O2)[C@H](C)[C@@H](O[C@@H]2O[C@H](C)C[C@H](N(C)C)[C@H]2O)[C@](C)(OC/C=C/c2cnc3ccccc3c2)C[C@@H](C)C(=O)[C@H](C)[C@H]2NC(=O)O[C@@]21C	Staphylococcus aureus	µg/mL	0.2
CC[C@H]1OC(=O)[C@H](C)C(=O)[C@H](C)[C@@H](O[C@@H]2O[C@H](C)C[C@H](N(C)C)[C@H]2O)[C@](C)(OCCNCc2cnc3ccccc3c2)C[C@@H](C)C(=O)[C@H](C)[C@H]2NC(=O)O[C@@]21C	Staphylococcus aureus	µg/mL	0.1
CC[C@H]1OC(=O)[C@H](C)C(=O)[C@H](C)[C@@H](O[C@@H]2O[C@H](C)C[C@H](N(C)C)[C@H]2O)[C@](C)(OCC2CC2c2cnc3ccccc3c2)C[C@@H](C)C(=O)[C@H](C)[C@H]2NC(=O)O[C@@]21C (some centres undefined)	Staphylococcus aureus	µg/mL	0.05

API: the following record is the query input.
Problem: Recorded MIC for CC[C@H]1OC(=O)[C@H](C)C(=O)[C@H](C)[C@@H](O[C@@H]2O[C@H](C)C[C@H](N(C)C)[C@H]2O)[C@](C)(OCCNCc2ccnc3ccccc23)C[C@@H](C)C(=O)[C@H](C)[C@@H](O)[C@]1(C)O with Staphylococcus aureus, please?
Result: 3.1

Data provenance is ChEMBL document CHEMBL1134286.
